The values you see were collected from patent US20180171001A1.

Exercise: for every item that follows, state its recorded neutralization IC50.
Experimental target: Env of HIV-1 strain Du172.17 (HIV-1)
Test protocol: cell-based or functional assay
Return type: number; implicit unit µg/mL.

Q: Entry γ46κ61 (antibody, V domains shown) VH: QIHLVQSGTEVKKPGSSVTVSCKAYGVNTFGLYAVNWVRQAPGQGLEYIGQIWRWKSSASHHFRGRVLISAVDLTGSSPPISSLEIKNVTSDDTAVYFCTTTSTYDKWSGLHHDGVVAFSSWGQGTLISVSA VL: DIQMTQSPSTLSASIGDTVRISCRASQSITGNWVAWYHQRPGKAPRLLIYRGAALLGGVPSRFSGSAAGTDFTLTIGNLQAEDFGTFYCQQYDTYPGTFGQGTKVEVKR needs its neutralization IC50 filled in; supply it.
A: 26.1

Q: Entry 8ANC3484 (antibody, V domains shown) VH: QIHLVQSGTEVKKPGSSVTVSCKAYGVNTFGLYAVNWVRQAPGQSLEYIGQIWRWKSSASHHFRGRVLISAVDLTGSSPPISSLEIKNLTSDDTAVYFCTTTSTYDRWSGLHHDGVMAFSSWGQGTLISVSA VL: DIQMTQSPSTLSASIGDTVRISCRASQSITGNWVAWYQQRPGKAPRLLIYRGAALLGGVPSRFRGSAAGTDFTLTIGNLQAEDFGTFYCQQYDTYPGTFGQGTKVEVKR needs its neutralization IC50 filled in; supply it.
A: 4.01
